# TARGET ENTITY: human GLP-1 receptor (Homo sapiens)
# Construct: expressed in transfected cells; host or cells: CHOK1 cells with a cAMP-regulated luciferase reporter construct
# Sequence (P43220 24-463): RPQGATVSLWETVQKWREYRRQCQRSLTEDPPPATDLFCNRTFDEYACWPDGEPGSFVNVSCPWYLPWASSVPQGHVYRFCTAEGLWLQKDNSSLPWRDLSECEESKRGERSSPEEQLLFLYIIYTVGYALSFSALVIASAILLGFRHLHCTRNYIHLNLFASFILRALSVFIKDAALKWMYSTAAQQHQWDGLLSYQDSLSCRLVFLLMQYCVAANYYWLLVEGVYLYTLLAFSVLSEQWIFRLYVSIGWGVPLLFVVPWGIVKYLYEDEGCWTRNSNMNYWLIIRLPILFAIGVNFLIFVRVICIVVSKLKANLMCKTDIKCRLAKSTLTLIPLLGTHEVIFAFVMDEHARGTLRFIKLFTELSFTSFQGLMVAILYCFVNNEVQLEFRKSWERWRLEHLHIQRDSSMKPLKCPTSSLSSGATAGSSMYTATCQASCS
# ASSAY EXPLANATION: GLP-1R reporter assay (cAMP-regulated luciferase, CHOK1 cells), human receptor
# Assay type: cell-based
# CONDITION: luciferase reporter, 6 hours exposure; read-out: EC50 human
No end group written: not given here. branched PEG 40 kDa = branched polyethylene glycol of 40 kDa
Each entry below carries its recorded pEC50.
Entry type: numeric. Quantity: pEC50, the -log10 of concentration in molar units.

cgGLP-1: SEQ ID NO: 6 + 20K PEG (HGEGTFTSDVSSYLEGC(PEG 20 kDa)AAKEFIAWLVKGRG): 7.92
cgGLP-13: SEQ ID NO: 8 + 20k PEG monomer (HGEGTFTSDVSSYLEGC(PEG 20 kDa)AAKEFIAWLKNGGPSSGAPPPS): 9.00
cgGLP-2: SEQ ID NO: 6 + 40k branched PEG (HGEGTFTSDVSSYLEGC(branched PEG 40 kDa)AAKEFIAWLVKGRG): 9.15

**Query** Consider the substance shown here: cgGLP-9: SEQ ID NO: 6 + 20k PEG dimer (HGEGTFTSDVSSYLEGCAAKEFIAWLVKGRG; not fully specified (residue 17); also: 20k PEG dimer) What is its recorded pEC50?
**Result** 9.00
